Target: α-amylase from porcine pancreas (Sus scrofa)
Construct: A saline suspension of α-amylase from porcine pancreas; purchased Sigma Aldrich (Steinheim, Germany) Lot #SLBN9170V (catalogue number not given); host or cells: porcine pancreas (tissue-derived)
Sequence (P00690 16-511): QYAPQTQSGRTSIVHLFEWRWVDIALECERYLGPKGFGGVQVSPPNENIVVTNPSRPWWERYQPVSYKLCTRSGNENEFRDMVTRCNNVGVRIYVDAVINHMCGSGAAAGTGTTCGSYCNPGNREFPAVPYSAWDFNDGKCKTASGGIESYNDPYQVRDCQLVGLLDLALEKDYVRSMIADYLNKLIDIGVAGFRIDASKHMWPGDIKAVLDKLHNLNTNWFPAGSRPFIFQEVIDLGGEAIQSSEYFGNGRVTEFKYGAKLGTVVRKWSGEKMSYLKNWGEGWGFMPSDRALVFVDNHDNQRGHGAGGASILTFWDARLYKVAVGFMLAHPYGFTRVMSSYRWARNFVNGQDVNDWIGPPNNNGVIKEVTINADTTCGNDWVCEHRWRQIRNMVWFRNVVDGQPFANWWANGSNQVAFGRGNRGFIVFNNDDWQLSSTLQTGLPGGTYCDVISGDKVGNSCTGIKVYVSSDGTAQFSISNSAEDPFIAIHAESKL
Assay: α-amylase enzyme activity assay, GalG2CNP conversion, UV/Vis detection of CNP at 405 nm
Assay type: biochemical
Conditions: (i) Kic and Kiu by global fit; [S] 10^6 µM; read-out: IC50 (Cheng−Prussoff, Equation (9))
pIC50: −log10 of the molar value.
quantity: pIC50

Ask | Request - read-out pIC50 | tested on α-amylase from porcine pancreas (Sus scrofa) | molecule OC[C@H]1O[C@@H](Oc2cc3c(O)cc(O)cc3[o+]c2-c2ccc(O)c(O)c2)[C@H](O)[C@@H](O)[C@@H]1O [Cyd-glc, cyanidin-3-glucoside]
Reply | 3.74

a: COc1cc(-c2[o+]c3cc(O)cc(O)c3cc2O[C@@H]2O[C@H](CO)[C@@H](O)[C@H](O)[C@H]2O)ccc1O [Peo-glc, peonidin-3-glucoside]
b: OC[C@H]1O[C@@H](Oc2cc3c(O)cc(O)cc3[o+]c2-c2ccc(O)cc2)[C@H](O)[C@@H](O)[C@@H]1O [Plg-glc, pelargonidin-3-glucoside]
Ask | Field: entry with larger pIC50 (options a / b ). Lab note: record the label of whichever item you select.
Reply | b
